# procedure_text: Phase 1 study: plasma pharmacokinetics in patients
# Assay type: in vivo, human
# cond: human, plasma, po, 400 mg, patient plasma, oral (1-g) 400 mg QD, C1D1, n = 6, mean; read-out: Cmax
test_readout: Cmax
Form entry: enter the amount, then its unit.

[ask] Which Cmax is listed for O=C1CC[C@H](N2Cc3cc(N4CCN(CC5CCN(c6ccc([C@@H]7c8ccc(O)cc8OC[C@@H]7c7ccccc7)cc6F)CC5)CC4)ccc3C2=O)C(=O)N1 ?
[reply] 1070 ng/mL

###

# procedure_text: Phase 1 study: plasma pharmacokinetics in patients
# Assay type: in vivo, human
# cond: human, plasma, po, 200 mg, patient plasma, oral (1-g) 200 mg QD, C1D15, n = 12, *median value; read-out: Tmax*
test_readout: Tmax (h)
Give the value in h but do not write h after it.

[ask] Which Tmax is listed for O=C1CC[C@H](N2Cc3cc(N4CCN(CC5CCN(c6ccc([C@@H]7c8ccc(O)cc8OC[C@@H]7c7ccccc7)cc6F)CC5)CC4)ccc3C2=O)C(=O)N1 ?
[reply] 4

Attribution: patent US20250381179A1
